# Test system: Mast/stem cell growth factor receptor Kit (Homo sapiens), P10721 [D816V]
# Sequence (P10721 whole entry D816V): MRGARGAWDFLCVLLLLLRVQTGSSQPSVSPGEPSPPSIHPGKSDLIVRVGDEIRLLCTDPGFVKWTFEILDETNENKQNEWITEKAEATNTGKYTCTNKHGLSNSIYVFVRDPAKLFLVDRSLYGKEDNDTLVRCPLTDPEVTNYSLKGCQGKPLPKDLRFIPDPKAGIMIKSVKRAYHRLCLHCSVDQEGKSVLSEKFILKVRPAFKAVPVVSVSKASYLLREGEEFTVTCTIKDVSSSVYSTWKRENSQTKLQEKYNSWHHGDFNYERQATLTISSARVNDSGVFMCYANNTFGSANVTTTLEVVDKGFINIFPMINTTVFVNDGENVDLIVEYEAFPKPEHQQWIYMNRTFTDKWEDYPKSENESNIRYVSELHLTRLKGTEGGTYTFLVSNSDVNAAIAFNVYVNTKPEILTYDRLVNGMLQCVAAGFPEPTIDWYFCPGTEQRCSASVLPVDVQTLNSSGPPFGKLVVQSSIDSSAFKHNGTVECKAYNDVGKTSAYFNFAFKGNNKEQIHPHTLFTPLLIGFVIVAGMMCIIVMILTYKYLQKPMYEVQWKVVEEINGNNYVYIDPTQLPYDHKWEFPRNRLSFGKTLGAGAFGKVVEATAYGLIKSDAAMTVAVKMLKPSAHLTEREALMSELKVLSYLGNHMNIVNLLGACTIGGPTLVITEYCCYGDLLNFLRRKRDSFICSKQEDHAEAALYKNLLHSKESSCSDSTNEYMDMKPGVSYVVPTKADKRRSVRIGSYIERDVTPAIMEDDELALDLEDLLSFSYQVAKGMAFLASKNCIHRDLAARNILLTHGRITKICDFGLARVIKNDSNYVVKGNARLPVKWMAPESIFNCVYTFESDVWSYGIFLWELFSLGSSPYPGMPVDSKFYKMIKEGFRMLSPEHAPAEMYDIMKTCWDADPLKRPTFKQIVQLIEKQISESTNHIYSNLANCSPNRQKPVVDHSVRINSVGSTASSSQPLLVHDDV
# test.conditions: at 0.1 µM
endpoint: inhibition (%)
Report the figure in % without appending any unit label.

What does the record list as inhibition for CS(=O)(=O)CCN(CC#N)Cc1ccc(-c2ccc3ncnc(Nc4ccc(OCc5cccc(F)c5)c(Cl)c4)c3c2)o1 ?
3.19

# iterate: NC(=O)c1ccc(-c2nc(-c3ccccn3)c(-c3ccc4c(c3)OCO4)[nH]2)cc1
7.73

# iterate: O=C1NC(=O)C(c2cccc(Cl)c2)=C1Nc1ccc(O)c(Cl)c1
0.75

# iterate: [O-][S+]1CCN(Cc2ccc(-c3ccc4ncnc(Nc5ccc(OCc6ccccc6)c(F)c5)c4c3)o2)CC1
2.25

# iterate: COc1cc2ncn(-c3cc(OCc4ccccc4C(F)(F)F)c(C(N)=O)s3)c2cc1OC
5.23

# iterate: COc1ccc2cc(-c3c(-c4ccncc4)nc(-c4ccc([S+](C)[O-])cc4)n3C)ccc2c1 (stereo not given)
1.61

# iterate: COc1ccc(-c2ccncc2)cc1C(N)=O
5.33

# iterate: Cc1ccc(NC(=O)c2ccnc(N3CCCC3)c2)cc1-c1ccc(C(=O)NCC2CC2)cc1
2.61

# iterate: O=C1NC(=O)C(N2CCc3ccccc32)=C1c1ccc(Cl)cc1
2.68

# iterate: Nc1ncnc2occ(-c3ccc(NC(=O)Nc4cccc(C(F)(F)F)c4)cc3)c12
3.24

# iterate: Cc1nnc(-c2ccc(C)c(-c3ccc(C(=O)Nc4cccc(C#N)c4)cc3)c2)o1
2.18

# iterate: COc1ccc(-c2coc3ncnc(N)c23)cc1
5.53

# iterate: NS(=O)(=O)c1cccc(-c2ccc3c(NC(=O)C4CC4)n[nH]c3c2)c1
1.16

# iterate: O=C(Nc1n[nH]c2nc(-c3ccco3)c(Br)cc12)C1CC1
4

# iterate: COc1cc2c(cc1Nc1nc(N3CCc4ccccc43)c3cc[nH]c3n1)N(C(=O)CN(C)C)CC2
3.89

# iterate: CC(C)=Cc1cccc2c1/C(=N/Nc1ccc(S(N)(=O)=O)cc1)C(=O)N2
2.15

# iterate: CCn1c(-c2nonc2N)nc2cnc(Oc3cccc(NC(=O)c4ccc(OCCN5CCOCC5)cc4)c3)cc21
2.71

# iterate: CCCN1CCC=C(c2ccc(Nc3nc(Nc4ccccc4C(N)=O)c4cc[nH]c4n3)c(C)c2)C1
7.12

# iterate: CC1=C(C(=O)Nc2ccc3[nH]ncc3c2)C(c2ccc(Cl)c(Cl)c2)CC(=O)N1 (stereo not given)
-0.94

# iterate: N#Cc1c(NC(=O)c2cccc3ccccc23)sc2c1CCCC2
1.1

====

# test.system: RAC-alpha serine/threonine-protein kinase (Homo sapiens);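 further: reported values are mean inhibition figures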
# test.conditions: at 0.1 µM
endpoint: inhibition (%)
Report the figure in % without appending any unit label.

What does the record list as inhibition for CS(=O)(=O)Nc1ccc(N/C=C2\C(=O)Nc3ccccc32)cc1 ?
-2.28

# iterate: CN(C)c1cc2c(Nc3ccc4nc(Cc5ccccc5)[nH]c4c3)ncnc2cn1
1.02

# iterate: Nc1ncnc2occ(-c3ccc(NC(=O)Nc4cc(C(F)(F)F)cc(C(F)(F)F)c4)cc3)c12
-0.23

# iterate: COC(=O)Nc1nc2cc(Oc3ccc(NC(=O)Nc4cccc(C(=O)O)c4)cc3)ccc2[nH]1
-2.71

# iterate: COc1cc(C=NNc2ncnc3c2cnn3-c2ccccc2)ccc1O
0.7
